Molecular target: PbICLc (Paracoccidioides lutzii, UniProt C1H8F5)
Sequence (C1H8F5 entry or part of it): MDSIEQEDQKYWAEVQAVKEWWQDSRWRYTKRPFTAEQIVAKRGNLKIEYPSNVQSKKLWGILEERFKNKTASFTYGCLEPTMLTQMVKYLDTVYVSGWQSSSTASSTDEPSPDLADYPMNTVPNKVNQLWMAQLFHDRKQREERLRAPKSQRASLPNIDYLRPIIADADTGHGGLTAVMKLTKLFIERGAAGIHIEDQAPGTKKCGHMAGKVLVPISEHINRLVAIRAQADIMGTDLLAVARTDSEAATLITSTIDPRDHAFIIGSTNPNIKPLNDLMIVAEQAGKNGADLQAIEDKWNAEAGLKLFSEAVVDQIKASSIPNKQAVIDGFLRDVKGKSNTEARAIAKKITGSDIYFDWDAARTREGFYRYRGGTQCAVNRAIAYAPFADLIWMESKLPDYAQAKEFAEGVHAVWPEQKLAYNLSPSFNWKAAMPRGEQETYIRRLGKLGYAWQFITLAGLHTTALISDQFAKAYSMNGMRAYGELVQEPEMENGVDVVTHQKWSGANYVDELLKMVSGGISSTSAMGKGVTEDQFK
Assay: Enzymatic activity of native PbICL in crude protein extract of yeast cells (PbICLc)
Assay type: biochemical
Details: crude extract, acetate; N.I. = No inhibition found; read-out: IC50 PbICLc Acetate
attribute measured: pIC50
Bear in mind: pIC50 is minus log10 of a mol/L concentration; give just that figure.

Prompt: For the compound O=C(O)CC[N+](=O)[O-] [3-Nitropropionate, reference compound] , give its measured pIC50 value.
Completion: 4.34

---

Target: PbICLc (Paracoccidioides lutzii, UniProt C1H8F5)
Experiment: Enzymatic activity of native PbICL in crude protein extract of yeast cells (PbICLc)
Type: biochemical
Conditions: read-out: IC50 PbICLc Acetate; crude extract, acetate; N.I. = No inhibition found
attribute measured: IC50 (µM)
Report the figure in µM without appending any unit label.

Prompt: For the compound CCCCCCCC1CC=CC(=O)O1 (stereo in doubt) , give its measured IC50 value.
Completion: 60

Would you kindly look at the next entry?
Prompt: For the compound "CCCCC/C=C\[C@H]1CC=CC(=O)O1" , give its measured IC50 value.
Completion: 50

// data source = paper PMC3994062
